Molecular target: human ether-à-go-go-related gene (hERG) potassium channel (human, UniProt Q12809);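 further: peak tail current of the secondary pulse compared with the same well before compound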
Sequence (Q12809 whole entry, looked up): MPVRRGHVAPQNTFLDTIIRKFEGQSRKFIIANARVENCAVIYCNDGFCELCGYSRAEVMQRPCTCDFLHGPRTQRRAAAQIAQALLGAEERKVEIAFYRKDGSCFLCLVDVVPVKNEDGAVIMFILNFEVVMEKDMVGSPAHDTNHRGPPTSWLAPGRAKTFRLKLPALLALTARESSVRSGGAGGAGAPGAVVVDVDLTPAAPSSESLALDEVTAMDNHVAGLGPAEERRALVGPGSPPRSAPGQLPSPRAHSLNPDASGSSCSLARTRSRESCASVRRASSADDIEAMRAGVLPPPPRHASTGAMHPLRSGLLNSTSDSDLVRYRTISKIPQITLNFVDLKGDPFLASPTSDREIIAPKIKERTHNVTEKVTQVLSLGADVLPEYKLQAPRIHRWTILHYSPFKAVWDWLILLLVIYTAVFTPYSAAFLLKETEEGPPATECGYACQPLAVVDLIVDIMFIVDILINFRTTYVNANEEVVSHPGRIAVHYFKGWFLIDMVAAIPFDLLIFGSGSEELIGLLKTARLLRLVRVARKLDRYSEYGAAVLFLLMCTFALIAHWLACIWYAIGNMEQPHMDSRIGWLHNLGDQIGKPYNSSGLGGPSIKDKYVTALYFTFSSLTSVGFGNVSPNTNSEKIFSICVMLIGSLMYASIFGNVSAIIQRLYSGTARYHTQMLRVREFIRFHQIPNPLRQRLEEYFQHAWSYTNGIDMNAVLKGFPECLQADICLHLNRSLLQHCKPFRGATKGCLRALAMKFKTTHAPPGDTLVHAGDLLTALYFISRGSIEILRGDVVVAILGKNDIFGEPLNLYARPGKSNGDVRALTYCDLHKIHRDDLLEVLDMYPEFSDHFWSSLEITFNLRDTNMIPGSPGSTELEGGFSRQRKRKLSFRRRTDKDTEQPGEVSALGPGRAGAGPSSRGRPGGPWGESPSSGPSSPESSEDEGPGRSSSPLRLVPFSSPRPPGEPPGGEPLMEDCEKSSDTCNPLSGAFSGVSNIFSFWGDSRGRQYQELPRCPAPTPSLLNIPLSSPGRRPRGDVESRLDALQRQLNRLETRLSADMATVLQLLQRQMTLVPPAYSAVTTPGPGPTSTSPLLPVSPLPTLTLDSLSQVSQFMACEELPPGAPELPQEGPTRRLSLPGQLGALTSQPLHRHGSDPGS
Assay: primary screen, population patch clamp on CHO cells stably expressing hERG; higher = less effect of the substance
Among all 310,000 compounds or so, about 14,000 (4.5%) showed an effect of 50% or more. Effects have a minus sign here. What follows is part of a selection rich in strong results, with near analogues and random picks from the rest.
ASSAY_ENDPOINT: hERG current change (%, negative = inhibition) at 10uM (%)
Write it as a number; the unit % goes unstated.

Reference set (5 entries):
O=C(Nc1ccc(Cl)cn1)c1cccc(S(=O)(=O)N2CCOCC2)c1
-65.4
Cc1ccc(Cl)cc1NC(=O)CN1CCN(C(=O)C2CCCO2)CC1 (stereo not shown)
-29.8
Cc1cc(C)n2nc(C)c(-c3ccc(Cl)cc3)c2n1
27.1
COc1cccc(C2c3[nH]c4ccccc4c3C[C@H]3C(=O)N(CCCO)CC(=O)N23)c1OC (stereo partly shown)
-6.83
O=C(CNC(=O)c1ccco1)Nc1ccncc1
-5.14

As a next step, examine the compound that follows.
What value of hERG current change (%, negative = inhibition) at 10uM on human ether-à-go-go-related gene (hERG) potassium channel (human, UniProt Q12809) does "Cc1ccc(OCCNC(=O)c2cccc(S(=O)(=O)N3CCN(C)CC3)c2)cc1" have?
-16.6

###

Target: human ether-à-go-go-related gene (hERG) potassium channel (human);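 further: peak tail current of the secondary pulse compared with the same well before compound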
Assay: primary screen, population patch clamp on CHO cells stably expressing hERG; higher = less effect of the substance
Screen size: about 310,000 compounds; about 14,000 (4.5%) showed an effect of 50% or more. Effects have a minus sign here. The entries come from a sample that favours strong results as a whole.
Catalogue of molecules with associated hERG current change (%, negative = inhibition) at 10uM
# number only, unit % dropped from output

Cc1oc2cc(Br)c(O)c(Br)c2c1-c1ccccc1
-13.5

# hERG current change (%, negative = inhibition) at 10uM lookup, item "CCN(CC)CCCOC(=O)C(OC(C)C)(c1ccccc1)c1ccccc1.Cl"
-31.9

Could you tell me which hERG current change (%, negative = inhibition) at 10uM is on file for "Cl.O=C(OC1CCN(CCCl)CC1)C(c1ccccc1)c1ccccc1" ?
11

Form field: reported hERG current change (%, negative = inhibition) at 10uM of CCN1CCCC(OC(=O)c2cc(-c3ccc(C)cc3)nc3ccccc23)C1.Cl (stereo not shown)
-8.97

###

Molecular target: human ether-à-go-go-related gene (hERG) potassium channel (human);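 further: peak tail current of the secondary pulse compared with the same well before compound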
Experiment: primary screen, population patch clamp on CHO cells stably expressing hERG; higher = less effect of the substance
Out of some 310,000 compounds screened, about 14,000 (4.5%) showed an effect of 50% or more. Effects have a minus sign here. What follows is part of a selection rich in strong results, with near analogues and random picks from the rest.
ASSAY_ENDPOINT: hERG current change (%, negative = inhibition) at 10uM (%)
Please give a number only; it is taken to be in %.

Here is how some molecules turned out for hERG current change (%, negative = inhibition) at 10uM.
Cn1c(CCN2CCCCC2)nc2cc(NC(=O)C3CCCCC3)ccc21
-60.2
COc1ccc(C(=O)N2CCN=C2SC)cc1
1.04
CC(Nc1nc(N2CCCCC2)nc2ccccc12)c1ccccc1 (stereo not shown)
-63.6

Okay, now this molecule:
What measured hERG current change (%, negative = inhibition) at 10uM goes with N=c1c(C(=O)NCc2ccc(F)cc2)cc2c(=O)n3ccccc3nc2n1CC1CCCO1 (stereo not shown) ?
-77.4

The measured values listed here are drawn from paper PMC4336329.
